Molecular target: T1, human C5 R885C-mmh (human, UniProt P01031 19-1676)
T1 construct: also called human C5 variant R885C
Experiment: SPR, mAb captured via anti-hFc, 25C
Protocol: Equilibrium dissociation constants (KD values) for C5 binding to purified anti-C5 antibodies were determined using a real-time surface plasmon resonance biosensor assay on a Biacore T200 instrument. […] Human C5 was obtained from a commercial source (EMD). […] Association of all the C5 reagents to each of the captured monoclonal antibodies was monitored for 3 minutes and their dissociation in HBST running buffer was monitored for 8 minutes. […]
quantity.kind: pKd
pKd field: float, defined as -log10 of concentration (mol/L).

For H4H12163P (antibody, human IgG4, V domains shown, Human IgG4 Fc with S108P hinge mutation (H4H)) VH: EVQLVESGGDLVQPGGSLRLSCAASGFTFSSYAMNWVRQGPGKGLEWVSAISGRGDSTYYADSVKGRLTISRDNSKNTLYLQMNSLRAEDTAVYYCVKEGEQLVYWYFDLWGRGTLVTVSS VL: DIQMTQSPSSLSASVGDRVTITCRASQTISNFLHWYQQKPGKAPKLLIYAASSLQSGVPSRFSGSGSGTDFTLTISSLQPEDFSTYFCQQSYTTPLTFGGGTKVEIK , what is its reported pKd?
9.07

For H4H12161P (antibody, human IgG4, V domains shown, Human IgG4 Fc with S108P hinge mutation (H4H)) VH: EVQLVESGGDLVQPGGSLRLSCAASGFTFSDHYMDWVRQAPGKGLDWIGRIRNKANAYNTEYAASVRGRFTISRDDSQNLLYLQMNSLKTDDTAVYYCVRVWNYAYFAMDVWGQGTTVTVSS VL: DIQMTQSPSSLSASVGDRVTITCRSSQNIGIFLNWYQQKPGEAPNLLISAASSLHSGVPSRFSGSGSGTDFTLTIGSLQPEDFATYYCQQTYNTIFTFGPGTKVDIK , what is its reported pKd?
9.17

For H4H12168P (antibody, human IgG4, V domains shown, Human IgG4 Fc with S108P hinge mutation (H4H)) VH: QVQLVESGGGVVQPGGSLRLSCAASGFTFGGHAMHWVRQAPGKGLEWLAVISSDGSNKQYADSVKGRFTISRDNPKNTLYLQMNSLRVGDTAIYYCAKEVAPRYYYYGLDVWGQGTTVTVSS VL: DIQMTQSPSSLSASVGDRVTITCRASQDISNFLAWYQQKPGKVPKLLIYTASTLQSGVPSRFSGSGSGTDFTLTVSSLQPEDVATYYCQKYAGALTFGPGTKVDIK , what is its reported pKd?
8.49

For H4H11683N (antibody, V domains shown, also called H2M11683N) VH: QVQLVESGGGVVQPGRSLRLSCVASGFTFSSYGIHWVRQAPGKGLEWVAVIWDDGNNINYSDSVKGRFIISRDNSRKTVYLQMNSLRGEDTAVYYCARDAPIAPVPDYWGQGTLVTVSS VL: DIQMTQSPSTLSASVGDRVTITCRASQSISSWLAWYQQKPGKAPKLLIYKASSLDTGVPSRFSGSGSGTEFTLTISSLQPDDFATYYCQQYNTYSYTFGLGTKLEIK , what is its reported pKd?
9.32
